System: rats with amnesia
Test Details: Antiamnestic activity: passive avoidance response (PAR) with amnesia by maximum electric shock
Type: in vivo
Setup Conditions: 50 mg/kg intraperitoneally; rats with electric shock amnesia; 24 hours after learning
Property Label: Time of presence of animals while PAR reproduction (seconds) in the dark chamber
One number for each entry, in s.

> print(dat)
                                   compound        test.system  observed
1  O=C([O-])CC[C@H](NC(=O)c1cncc(O)c1)C(=O)[O-].[K+].[K+]  rats with amnesia      68.6

Give Time of presence of animals while PAR reproduction (seconds) in the dark chamber for all compounds that follow.
1. O=C([O-])CC[C@H](NC(=O)c1cncc(O)c1)C(=O)[O-].[Ca+2]
2. O=C([O-])CC[C@H](NC(=O)c1cncc(O)c1)C(=O)[O-].[Na+].[Na+]
3. O=C(O)CC[C@H](NC(=O)c1cncc(O)c1)C(=O)O [Nooglutyl, N-(5-hydroxynicotinoyl)-L-glutamic acid, reference compound]

1. 40.6
2. 67.5
3. 65.7

These measurements were taken from patent US8030493B2.
